Experiment: folding enthalpy; higher = less favourable; fluorescence melt of hairpins on a sequencing array, two-state fit
Conditions: sodium 0.088 M
test readout: folding enthalpy (kcal/mol)
# number only, unit kcal/mol dropped from output

// known answers, use as guide
- GACCAGACGAAAGTCGTC (((..(((....)))))): -12.5
- GGCTTCGAAAGAATAGCC ((((((....)))..))): -27.6
- GAAGATGGAAACATCTTC (((((((....))))))): -48.6
- GCCCTGACGAAAGTCGGC (((..(((....)))))): -13.6
- GCCTAGGGAAACCTAGGC (((((((....))))))): -36.9

Here is another sequence to look at.
QUERY: Returns the measured folding enthalpy for the input sequence. Input: GCAGGTCGAAAGACATGC (((.(((....))).)))
RESULT: -40.4

----------
Measured folding enthalpy, listed per entry.
Assay: folding enthalpy; higher = less favourable; fluorescence melt of hairpins on a sequencing array, two-state fit
Conditions: sodium 0.088 M
Expressed in kcal/mol, but write only the number.

• GTCAGTGGAAACGTTGAC ((((..(....)..)))) = -21.1

QUERY: Endpoint output: folding enthalpy of GGCCATGGAAACGTGGCC (((((.(....).))))) . Value?
RESULT: -52.1

QUERY: Please report the recorded folding enthalpy for GCGGTGCGAAAGCTTCGC (((..((....))..))) .
RESULT: -16.4

QUERY: // query folding enthalpy value for entry GCAACGCGAAAGCCTGGC ((.(.((....)).).))
RESULT: -6.76

----------
Test: melting temperature; fluorescence melt of hairpins on a sequencing array, two-state fit, raised by 9.35 °C to match UV melts
Settings: sodium 0.088 M
test readout: Tm (°C)
Kindly provide the numeric value in °C only, without the unit symbol.

Example results:
* GCTTGAGAAATCAAGC ((((((....)))))) | 55.8
* GCGTGTCGACGC ((((....)))) | 55.4
* GTATCCGAAAGGAGCTAC ((((((....)))..))) | 31.8
* GCCTACGCGAAAGCGGGC (((..(((....)))))) | 62.1
* GCCAAAGAAATTTGGC ((((((....)))))) | 54

QUERY: What does the record list as Tm for GATCAAAGCGTTGATC ((((((....)))))) ?
RESULT: 43.7

QUERY: Please look up its Tm: GATCTCTATCGAGATC ((((((....))))))
RESULT: 51.1

QUERY: Would you mind telling me what Tm value was observed for GAACGTGGAAACACGTTC (((((((....))))))) ?
RESULT: 66.3

QUERY: Which Tm is reported for this sequence? GATCCATACCTGGATC ((((((....))))))
RESULT: 52.1

QUERY: Which Tm is reported for this sequence? GCTACGGGAAACCGTAAC (.(((((....))))).)
RESULT: 36.1

QUERY: Return reported Tm; argument: GTGGACACGAAAGTGCAC (((..(((....))))))
RESULT: 45

QUERY: What value of Tm has been recorded for this entry: GCCTCGCGAAAGCATGGC (((..((....))..)))
RESULT: 53.3

Where do the numbers come from? From the array DNA melting data of Ke et al. (doi:10.1101/2024.01.08.574731).
